Assignment: determine reported melting point for the given compounds.

`CC1(C)OC(c2ccc(S(N)(=O)=O)c(F)c2)=C(c2cccc(Cl)c2)C1=O` yielded melting point of 164 to 165 °C

The compound identified as `CC1(C)OC(c2ccc(S(N)(=O)=O)cc2)=C(c2ccco2)C1=O` registered its melting point at 156 to 157 °C

melting point measured on `CC1(C)OC(c2ccc(S(C)(=O)=O)cc2)=C(c2ccc(C=O)s2)C1=O` = 168 to 170 °C

Recorded result, `CC1(C)OC(c2ccc(S(N)(=O)=O)cc2)=C(c2ccc(F)c(F)c2)C1=O` , melting point: 210 to 211 °C

Input `CC1(C)OC(c2ccc(S(N)(=O)=O)c(Br)c2)=C(c2ccccc2)C1=O` . Output melting point: 128 to 132 °C

Reported melting point of `CSc1ccc(C2=C(c3cc(F)cc(F)c3)C(=O)C(C)(C)O2)cc1` : 122 to 123 °C

Reported melting point ( `CCCC(=O)NS(=O)(=O)c1ccc(C2=C(c3cccc(F)c3)C(=O)C(C)(C)O2)cc1` ) = 188 to 189 °C

For `CSc1ccc(C2=C(c3ccc(S(C)(=O)=O)cc3)OC(C)(C)C2=O)cc1` the compound record lists melting point as 137 to 141 °C

For this compound ( `CC(=O)c1ccc(C2=C(c3ccc(S(C)(=O)=O)cc3)OC3(CCCC3)C2=O)cc1` ), measured melting point is 126 to 130 °C

Notebook: `CC1(C)OC(c2ccc(S(C)(=O)=O)cc2)=C(c2cc(F)cc(F)c2)C1=O` , melting point read as 141 to 142 °C

The compound listed as `CSc1ccc(C2=C(c3cc(F)cc(F)c3)C(=O)C(C)(C)O2)cc1Br` has a reported melting point of 115 to 116 °C

Documented melting point of `COc1ccccc1C1=C(c2ccc(S(C)(=O)=O)cc2)OC(C)(C)C1=O` : 109 to 111 °C

// recorded melting point for `CC1(C)OC(c2ccc(S(N)(=O)=O)cc2F)=C(c2cc(F)cc(F)c2)C1=O` : 185 to 187 °C

Recorded melting point (compound `CC1(C)OC(c2ccc(S(C)(=O)=O)cc2)=C(c2cc(F)ccc2F)C1=O` ): 141 to 142 °C

Form: compound = `CC1(C)OC(c2ccc(S(C)(=O)=O)cc2)=C(c2ccc(OC(F)(F)F)cc2)C1=O` ; melting point = 118 to 120 °C

Lab book: melting point of `CC1(C)OC(c2ccc(S(N)(=O)=O)c(F)c2)=C(c2ccccc2Cl)C1=O` noted as 122 to 123 °C

Form: compound = `CC1(C)OC(c2ccc(S(N)(=O)=O)cc2)=C(c2cc(F)ccc2F)C1=O` ; melting point = 182 to 183 °C
